Source listed as patent US8232101B2.

- System: T2 cells loaded with individual peptides
- ASSAY: 51Cr Release Assay for activity of CTL generated with peptide-loaded Drosophila aAPC
- Format: cell-based, human
- Set-up: key: Strong (S); Median (M); Weak (W); None (N)
- PARTICULARS: CTL generated with truncated peptides; T2 targets loaded with individual peptides
READOUT_LABEL: CTL Activity

TLVDLPGM (listed as Homo sapiens) [Peptide P13-8] ... M
LVLNLLE (listed as Homo sapiens) [Peptide P3-8] ... M
TLIDLPGITRV (listed as Homo sapiens) [Peptide P14] ... M
TLVDLP (listed as Homo sapiens) [Peptide P13-10] ... S

Query CTL Activity on T2 cells loaded with individual peptides for SLVLNLLEL (listed as Homo sapiens) [Peptide P3]
M
